All figures here come from ChEMBL document CHEMBL1811876.

TEST: Anticancer activity against human KBVIN cells after 72 hrs by sulforhodamine B assay
Format: functional
MEASURED_PARAMETER: GI50 (µM)
Report as a plain number; the unit µM is understood.

Solved cases (3 shown):
COc1ccc2c3c(c4cc(OC)c(OC)cc4c2c1)C[C@@H]1CCN(CC2CC2)CN1C3
5.68
COc1ccc2c3c(c4cc(OC)c(OC)cc4c2c1)C[C@@H]1CN(CC2CC2)CCN1C3
13.4
COc1ccc2c3c(c4cc(OC)c(OC)cc4c2c1)C[C@@H]1CN(C(=O)N(C)C)CCN1C3
11.4

**Query** Report GI50, nothing else, for this molecule: `COc1ccc2c3c(c4cc(OC)c(OC)cc4c2c1)C[C@@H]1CN(C(=O)c2ccccc2)CCN1C3`
**Result** 7.64

**Query** Report GI50, nothing else, for this molecule: `COc1ccc2c3c(c4cc(OC)c(OC)cc4c2c1)C[C@@H]1CN(Cc2ccccc2)CN1C3`
**Result** 1.87

**Query** Report GI50, nothing else, for this molecule: `COc1ccc2c3c(c4cc(OC)c(OC)cc4c2c1)C[C@@H]1CCN(CC(C)C)CN1C3`
**Result** 7.32
